biological target: Human recombinant GSK-3β (Homo sapiens, UniProt P49841); construct: purchased Millipore (Millipore Iberica S.A.U.); assay: GSK-3β inhibition in vitro assay (Kinase-Glo luminescence); assay type: biochemical; settings: read-out: Gsk3β IC50
Sequence (P49841 whole entry): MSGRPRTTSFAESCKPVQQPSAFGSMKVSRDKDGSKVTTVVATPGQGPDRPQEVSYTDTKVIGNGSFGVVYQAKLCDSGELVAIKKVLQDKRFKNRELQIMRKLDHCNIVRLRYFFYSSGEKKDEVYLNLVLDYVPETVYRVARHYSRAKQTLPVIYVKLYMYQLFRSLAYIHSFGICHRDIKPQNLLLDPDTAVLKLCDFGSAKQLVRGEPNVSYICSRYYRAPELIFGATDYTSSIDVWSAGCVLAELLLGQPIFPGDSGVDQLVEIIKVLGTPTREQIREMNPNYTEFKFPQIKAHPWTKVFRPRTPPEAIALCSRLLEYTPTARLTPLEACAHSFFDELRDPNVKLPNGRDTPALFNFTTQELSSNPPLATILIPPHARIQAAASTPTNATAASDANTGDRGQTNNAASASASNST
Here, each record is paired with measured IC50 data.

| MOLECULE | IC50 |
| --- | --- |
| CCOC(=O)C1=C(C)N(CCC2CCN(Cc3ccccc3)CC2)C(=O)NC1c1ccc(OCCCCCCN2CCCC2)cc1 (stereo not drawn) | 30.6 µM |
| CCOC(=O)C1=C(C)N(CCC2CCN(Cc3ccccc3)CC2)C(=O)NC1c1ccc(OCCCCCN2CCOCC2)cc1 (stereo not drawn) | 56.6 µM |
| CCOC(=O)C1=C(C)N(CCC2CCN(Cc3ccccc3)CC2)C(=O)NC1c1ccc(OCCCCN2CCCCC2)cc1 (stereo not drawn) [BIGI-BIH-D2] | 106 µM |

----------
target: human H3 receptor (Homo sapiens, UniProt Q9Y5N1); construct: expressed in transfected cells; host or cells: CHO-K1; assay: H3 Receptor Binding Assay (radioligand binding); details: membranes from CHO-K1 cells, [3H]-N-α-methylhistamine 1.0 nM; read-out: H3R Ki [nM] ± SEM
Sequence (Q9Y5N1 whole entry): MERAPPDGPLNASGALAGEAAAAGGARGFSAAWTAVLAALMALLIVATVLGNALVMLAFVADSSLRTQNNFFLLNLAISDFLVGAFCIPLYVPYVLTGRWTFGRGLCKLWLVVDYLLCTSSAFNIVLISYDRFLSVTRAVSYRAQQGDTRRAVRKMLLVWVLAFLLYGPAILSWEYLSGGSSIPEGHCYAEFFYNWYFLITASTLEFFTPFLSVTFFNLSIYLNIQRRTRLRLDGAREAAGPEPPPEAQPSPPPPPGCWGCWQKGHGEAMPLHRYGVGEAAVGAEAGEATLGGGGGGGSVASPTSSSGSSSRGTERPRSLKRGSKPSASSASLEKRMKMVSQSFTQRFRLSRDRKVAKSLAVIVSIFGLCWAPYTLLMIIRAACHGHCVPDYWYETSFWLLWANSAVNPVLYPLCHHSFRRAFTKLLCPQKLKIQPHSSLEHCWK
READOUT LABEL: log10 of Ki (log10 of the value in nM)

| COMPOUND | log10 of Ki |
| --- | --- |
| CCOC(=O)C1=C(C)N(CCC2CCN(Cc3ccccc3)CC2)C(=O)NC1c1ccc(OCCCCN2CCOCC2)cc1 (stereo not drawn) [BIGI-BIH-D3] | 1.08 |
| CCOC(=O)C1=C(C)N(CCC2CCN(Cc3ccccc3)CC2)C(=O)NC1c1ccc(OCCCCCN2CCCCC2)cc1 (stereo not drawn) [BIGI-BIH-D5] | -0.52 |
| CCOC(=O)C1=C(C)N(CCC2CCN(Cc3ccccc3)CC2)C(=O)NC1c1ccc(OCCCCCCN2CCCCC2)cc1 (stereo not drawn) [BIGI-BIH-D8] | -0.70 |
| CCOC(=O)C1=C(C)N(CCC2CCN(Cc3ccccc3)CC2)C(=O)NC1c1ccc(OCCCCCN2CCCC2)cc1 (stereo not drawn) [BIGI-BIH-D4] | -0.30 |
| CCOC(=O)C1=C(C)N(CCC2CCN(Cc3ccccc3)CC2)C(=O)NC1c1ccc(OCCCCCCN2CCCC2)cc1 (stereo not drawn) [BIGI-BIH-D7] | -0.70 |
| CCOC(=O)C1=C(C)N(CCC2CCN(Cc3ccccc3)CC2)C(=O)NC1c1ccc(OCCCCCCN2CCOCC2)cc1 (stereo not drawn) [BIGI-BIH-D9] | 0.48 |
| CCOC(=O)C1=C(C)N(CCC2CCN(Cc3ccccc3)CC2)C(=O)NC1c1ccc(OCCCCN2CCCCC2)cc1 (stereo not drawn) [BIGI-BIH-D2] | -0.22 |
| CCOC(=O)C1=C(C)N(CCC2CCN(Cc3ccccc3)CC2)C(=O)NC1c1ccc(OCCCCCN2CCOCC2)cc1 (stereo not drawn) [BIGI-BIH-D6] | -0.22 |
| CCOC(=O)C1=C(C)N(CCC2CCN(Cc3ccccc3)CC2)C(=O)NC1c1ccc(OCCCCN2CCCC2)cc1 (stereo not drawn) [BIGI-BIH-D1] | 0.45 |

----------
target: human recombinant acetylcholinesterase (hAChE) (Homo sapiens); construct: purchased Sigma-Aldrich; assay: Cholinesterase inhibition assay (Ellman), hAChE; type: biochemical; details: read-out: hAChE IC50
Sequence (P22303 32-614): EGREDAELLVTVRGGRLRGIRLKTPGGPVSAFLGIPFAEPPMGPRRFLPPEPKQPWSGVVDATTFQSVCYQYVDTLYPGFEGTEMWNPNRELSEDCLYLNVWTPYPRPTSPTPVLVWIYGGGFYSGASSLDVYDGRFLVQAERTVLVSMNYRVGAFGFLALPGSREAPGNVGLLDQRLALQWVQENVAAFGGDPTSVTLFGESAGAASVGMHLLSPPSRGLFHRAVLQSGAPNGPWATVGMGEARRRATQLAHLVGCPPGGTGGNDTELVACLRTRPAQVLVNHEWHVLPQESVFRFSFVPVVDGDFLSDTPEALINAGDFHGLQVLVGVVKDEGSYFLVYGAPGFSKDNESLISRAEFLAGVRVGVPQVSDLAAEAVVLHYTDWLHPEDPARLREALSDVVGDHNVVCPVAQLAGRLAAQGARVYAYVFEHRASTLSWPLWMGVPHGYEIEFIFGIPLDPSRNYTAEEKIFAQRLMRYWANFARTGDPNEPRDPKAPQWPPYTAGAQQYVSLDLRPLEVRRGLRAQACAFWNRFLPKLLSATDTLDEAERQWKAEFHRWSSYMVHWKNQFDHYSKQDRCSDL
pIC50: −log10 of the molar value.

| MOLECULE | pIC50 |
| --- | --- |
| CCOC(=O)C1=C(C)N(CCC2CCN(Cc3ccccc3)CC2)C(=O)NC1c1ccc(OCCCCCN2CCOCC2)cc1 (stereo not shown) | 6.94 |
| CCOC(=O)C1=C(C)N(CCC2CCN(Cc3ccccc3)CC2)C(=O)NC1c1ccc(OCCCCCN2CCCCC2)cc1 (stereo not shown) | 7.17 |
| CCOC(=O)C1=C(C)N(CCC2CCN(Cc3ccccc3)CC2)C(=O)NC1c1ccc(OCCCCN2CCCCC2)cc1 (stereo not shown) [BIGI-BIH-D2] | 7.17 |
| CCOC(=O)C1=C(C)N(CCC2CCN(Cc3ccccc3)CC2)C(=O)NC1c1ccc(OCCCCN2CCCC2)cc1 (stereo not shown) [BIGI-BIH-D1] | 7.20 |

Values compiled from patent EP4168396B1.
